This listing pairs compounds with measured Inhibition rate.
Tested on: α-glucosidase
Procedure summary: α-glucosidase inhibition assay (PNPG substrate, OD 405 nm)
Format: biochemical, Saccharomyces cerevisiae
Condition summary: compound at 250 μM; 0.07 U/ml enzyme, 0.5 mM PNPG, pH 6.8, 37 °C
Answer in %, number only, no unit symbol.

Below: 2 compounds and their reported Inhibition rate.
[[record]]
compound = "CCCC1=C(O)C(=O)C=C(O)C1=O"
target_or_test_system = "α-glucosidase"
reading = 18.1

[[record]]
compound = "COC1=CC(=O)C(OC)=C(CCC(C)C)C1=O [Compound 11a]"
target_or_test_system = "α-glucosidase"
reading = 1.5


Input line: I would be grateful if you could share the reported Inhibition rate for COC1=CC(=O)C(O)=C(Cc2ccc3ccccc3c2)C1=O [Compound 16b] .
Output line: 4.3

Input line: Again, but for `CCCCCCCC1=C(O)C(=O)C=C(O)C1=O`
Output line: 80.8

Input line: How about this compound: COC1=CC(=O)C(O)=C(CCC(C)C)C1=O [Compound 11b]
Output line: 2.6

Input line: Okay, and COC1=CC(=O)C(OC)=C(Cc2ccc(-c3ccccc3)cc2)C1=O [Compound 17a] ?
Output line: 5.1

Input line: Another compound: `CCCC1=C(OC)C(=O)C=C(OC)C1=O`
Output line: 9.0

Input line: Further, for `CCCCCC1=C(O)C(=O)C=C(O)C1=O` ?
Output line: 19.0

Input line: Another: CCCCCCCCCCCCCCCC1=C(O)C(=O)C=C(O)C1=O [Compound 10d]
Output line: 100

Input line: # repeat for COC1=CC(=O)C(O)=C(Cc2ccc(-c3ccccc3)cc2)C1=O [Compound 17b]
Output line: 14.3

Input line: Same again, this time with COCCCC1=C(OC)C(OC)=CC(=O)C1=O [Compound 13c]
Output line: 0

Input line: Repeat with `CCCCCCCCCCCCCC1=C(O)C(=O)C=C(O)C1=O`
Output line: 100

Input line: Item: COCCCC1=C(OC)C(=O)C=C(OC)C1=O [Compound 13a]
Output line: 0
